Target: Mitogen-activated protein kinase kinase kinase 3 (Homo sapiens) (UniProt Q99759)
Sequence (Q99759 whole entry, looked up): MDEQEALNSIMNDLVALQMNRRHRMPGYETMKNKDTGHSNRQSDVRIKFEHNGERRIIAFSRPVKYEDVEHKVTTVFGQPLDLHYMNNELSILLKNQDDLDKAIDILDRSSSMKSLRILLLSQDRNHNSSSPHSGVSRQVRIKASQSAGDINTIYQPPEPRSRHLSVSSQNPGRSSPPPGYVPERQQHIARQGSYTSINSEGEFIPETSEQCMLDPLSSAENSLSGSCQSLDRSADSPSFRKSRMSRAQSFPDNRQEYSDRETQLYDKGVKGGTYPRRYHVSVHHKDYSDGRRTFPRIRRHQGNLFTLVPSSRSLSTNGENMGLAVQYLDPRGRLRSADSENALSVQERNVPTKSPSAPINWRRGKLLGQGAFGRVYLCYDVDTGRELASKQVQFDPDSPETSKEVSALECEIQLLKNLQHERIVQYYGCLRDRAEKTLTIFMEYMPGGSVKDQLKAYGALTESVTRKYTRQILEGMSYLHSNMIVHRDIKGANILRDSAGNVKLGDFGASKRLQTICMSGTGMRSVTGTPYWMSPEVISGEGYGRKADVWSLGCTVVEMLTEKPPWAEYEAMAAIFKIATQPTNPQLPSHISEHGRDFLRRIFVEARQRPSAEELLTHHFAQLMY
Assay: modulators of MEKK3-MEK5 PB1 binding, primary screen, biochemical, wildtype MEKK3, multiplex bead flow cytometry, Alexa488-MEK5 (AID 1529);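 also: Alexa488 bead fluorescence after subtracting the streptavidin-only scavenger bead signal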
Settings: bead-based flow cytometry, Alexa488-MEK5 binding to MEKK3; at 10 µM; actives lie on both sides; 0 = blocked by unlabeled MEK5, 100 = vehicle
The whole screen tested about 290,000 compounds, of which about 4,200 (1.4%) were called active. The sample holds actives, similar compounds and a random draw of the others, so the mix is not that of the screen.
Below: a set of entries, each annotated with reported binding response (% of control).
Response body: numeric value in %, unit text excluded.

# example entries with known answers
Compound	Target Of Assay	Property Measured	Result Units	Val
CCOc1ccc(N(CC(=O)Nc2ccccc2F)S(=O)(=O)c2c(C)[nH]c(=O)[nH]c2=O)cc1	Mitogen-activated protein kinase kinase kinase 3 (Homo sapiens) (UniProt Q99759)	binding response (% of control)	%	101
Cc1ccc(NC(=O)C2CCN(S(=O)(=O)c3ccc4c(c3)NC(=O)CO4)CC2)cc1C	Mitogen-activated protein kinase kinase kinase 3 (Homo sapiens) (UniProt Q99759)	binding response (% of control)	%	106

Give the measured binding response (% of control) of COCCc1nn2c(=O)cc(COC(=O)c3cc(OC)c(OC)c(OC)c3)nc2s1 .
95

Give the measured binding response (% of control) of COc1ccc(C#Cc2c(-c3ccc(OC)cc3)oc3ccc(-c4ccc5c(c4)OCO5)cc23)cc1 .
95

Give the measured binding response (% of control) of C=CCN1C(=NC(=O)COc2ccccc2)SC2CS(=O)(=O)CC21 (stereo not given) .
102

----------
Molecular target: Mitogen-activated protein kinase kinase kinase 3 (Homo sapiens)
Assay: modulators of MEKK3-MEK5 PB1 binding, primary screen, biochemical, wildtype MEKK3, multiplex bead flow cytometry, Alexa488-MEK5 (AID 1529)
Details: bead-based flow cytometry, Alexa488-MEK5 binding to MEKK3; at 10 µM; actives lie on both sides; 0 = blocked by unlabeled MEK5, 100 = vehicle
Among all 290,000 compounds or so, about 4,200 (1.4%) were called active.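 How the source made its calls: active means binding response more than 3 SD above or below the average of its plate-row segment, actives on both sides; inconclusive means wells at one plate position flagged as instrument error; inactive means the rest.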 For the sample, actives were picked, then their nearest neighbours and some compounds at random.
Please reply with one of these outcomes: active, inactive

Worked cases, answers included:
Compound	Group
COc1cccc(NC(=S)NCc2ccccn2)c1	active
COc1ccccc1CN1CC(C(=O)NCCc2cn[nH]c2)CCC1=O (stereo unspecified)	inactive
N#C/C(=C\c1ccccc1C(F)(F)F)C(=O)Nc1ccccc1F	inactive
Cc1cc(OCC(=O)Nc2c(C)n(C)n(-c3ccccc3)c2=O)ccc1[N+](=O)[O-]	inactive

Dear colleague, could you share the recorded outcome for COC(=O)c1ccc(C(=O)OC)c(NC(=S)N2CCN(c3ccc(F)cc3)CC2)c1 when you have a moment?
inactive

Dear colleague, could you share the recorded outcome for CCOc1ccc(NC(=O)Nc2cc(C)ccc2OC)cc1 when you have a moment?
active

Dear colleague, could you share the recorded outcome for CCOC(=O)C1CCN(C(=O)CN2C(=O)c3cccnc3Oc3ccc(C)cc32)CC1 when you have a moment?
inactive

Dear colleague, could you share the recorded outcome for Cc1ccc(-c2nc(-c3ccncc3)no2)c(C)c1 when you have a moment?
inactive

Dear colleague, could you share the recorded outcome for N#C/C(=C/c1ccc(N2CCOCC2)o1)C(=O)N1CCOCC1 when you have a moment?
inactive

Dear colleague, could you share the recorded outcome for COc1cccc(NC(=S)NCc2ccco2)c1 when you have a moment?
inactive

Dear colleague, could you share the recorded outcome for CCOc1ccc(C(=O)Nc2cc(OC)ccc2OC)cc1 when you have a moment?
inactive

----------
Biological target: Mitogen-activated protein kinase kinase kinase 3 (Homo sapiens)
Assay: modulators of MEKK3-MEK5 PB1 binding, primary screen, biochemical, wildtype MEKK3, multiplex bead flow cytometry, Alexa488-MEK5 (AID 1529);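 also: Alexa488 bead fluorescence after subtracting the streptavidin-only scavenger bead signal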
Conditions: bead-based flow cytometry, Alexa488-MEK5 binding to MEKK3; at 10 µM; actives lie on both sides; 0 = blocked by unlabeled MEK5, 100 = vehicle
Hit rate of the full screen: of about 290,000 compounds, about 4,200 (1.4%) were called active. This excerpt belongs to a sample that is enriched for actives.
Property Measured: binding response (% of control)

# example entries with known answers
Compound String	Val
N/C(=N\OS(=O)(=O)c1cccc([N+](=O)[O-])c1)c1ccncc1	145% (active)
O=C(Nc1cccc(-c2nc3ccccc3[nH]2)c1)c1ccc(C(=O)Nc2cccc(-c3nc4ccccc4[nH]3)c2)cc1	63% [inhibitor] (active)
COc1cc2c(cc1OC)CN(C(=O)c1cc(S(=O)(=O)N3CCCCC3)ccc1Cl)CC2	101% (inactive)

Lab note: need binding response (% of control) with Mitogen-activated protein kinase kinase kinase 3 (Homo sapiens) for entry CC(C)CNS(=O)(=O)c1ccc(CCC(=O)NCc2ccc(Cl)cc2)cc1 , please look it up.
96% (inactive)

Lab note: need binding response (% of control) with Mitogen-activated protein kinase kinase kinase 3 (Homo sapiens) for entry CCOC(=O)C1CCN(c2ccc(C(=O)O)cc2[N+](=O)[O-])CC1 , please look it up.
103% (inactive)

----------
Target: Mitogen-activated protein kinase kinase kinase 3 (Homo sapiens)
Experiment: modulators of MEKK3-MEK5 PB1 binding, primary screen, biochemical, wildtype MEKK3, multiplex bead flow cytometry, Alexa488-MEK5 (AID 1529);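 also: Alexa488 bead fluorescence after subtracting the streptavidin-only scavenger bead signal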
Conditions: bead-based flow cytometry, Alexa488-MEK5 binding to MEKK3; at 10 µM; actives lie on both sides; 0 = blocked by unlabeled MEK5, 100 = vehicle
Hit rate of the full screen: of about 290,000 compounds, about 4,200 (1.4%) were called active.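 The calls were made as follows: active = binding response more than 3 SD above or below the average of its plate-row segment, actives on both sides; inconclusive = wells at one plate position flagged as instrument error; inactive = the rest.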 The list comes from a sample in which actives are over-represented; it also holds close analogues and randomly drawn compounds.
Please reply with one of these outcomes: active, inactive

Worked cases, answers included:
Molecule	Group
CC1(c2nnc(-c3ccncc3)o2)CC(c2cccnc2)=NO1 (centres undefined)	inactive
COCCNC(=O)CCCn1c(=O)c2ccccc2n(Cc2cccc([N+](=O)[O-])c2)c1=O	inactive
Cn1c(=O)c2c(nc(N/N=C/c3cccs3)n2Cc2ccc(Br)cc2)n(C)c1=O	active

Dear colleague, could you share the recorded outcome for Cc1ccc(CNC(=O)Cn2c(=O)c3sccc3n(Cc3cccc([N+](=O)[O-])c3)c2=O)cc1 when you have a moment?
active

Dear colleague, could you share the recorded outcome for Cn1c(=O)c2sccc2n(Cc2ccc(Br)cc2)c1=O when you have a moment?
inactive

Dear colleague, could you share the recorded outcome for Cc1cc(C(=O)OCC(=O)N2c3ccccc3NC(=O)C2(C)C)c(C)n1-c1ccccc1 when you have a moment?
active

Dear colleague, could you share the recorded outcome for CC1=C(N2CCN(c3ncccn3)CC2)CCC1=O when you have a moment?
inactive

Dear colleague, could you share the recorded outcome for COc1ccc(NCCc2ccccn2)cc1 when you have a moment?
inactive

Dear colleague, could you share the recorded outcome for COc1ccc(CC(=O)N2N=C(C)CC2(O)C(F)(F)F)cc1 (centres undefined) when you have a moment?
active

Dear colleague, could you share the recorded outcome for NC(=S)N/N=C/c1coc2cc(Cl)ccc2c1=O when you have a moment?
inactive

Dear colleague, could you share the recorded outcome for O=C(COc1ccccc1Cl)Nc1ccc(C(=O)c2ccc(C(=O)O)cc2)cc1 when you have a moment?
inactive

Dear colleague, could you share the recorded outcome for CCN1CCN(c2nc(Nc3cc(OC)ccc3OC)nc(Nc3cc(OC)ccc3OC)n2)CC1 when you have a moment?
active

----------
Molecular target: Mitogen-activated protein kinase kinase kinase 3 (Homo sapiens) (UniProt Q99759)
Assay: modulators of MEKK3-MEK5 PB1 binding, primary screen, biochemical, wildtype MEKK3, multiplex bead flow cytometry, Alexa488-MEK5 (AID 1529);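 also: Alexa488 bead fluorescence after subtracting the streptavidin-only scavenger bead signal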
Settings: bead-based flow cytometry, Alexa488-MEK5 binding to MEKK3; at 10 µM; actives lie on both sides; 0 = blocked by unlabeled MEK5, 100 = vehicle
Out of some 290,000 compounds screened, about 4,200 (1.4%) were called active. This excerpt belongs to a sample that is enriched for actives.
Below: a set of entries, each annotated with reported binding response (% of control).

# example entries with known answers
Compound	Target Of Assay	Val
COC(=O)C(C)NC(=O)COc1ccc2ccccc2c1 (centres undefined)	Mitogen-activated protein kinase kinase kinase 3 (Homo sapiens) (UniProt Q99759)	98% (inactive)
C=CCSc1nnc(N2C(=O)C(O)=C(C(=O)c3ccco3)C2c2ccc(F)cc2)s1 (centres undefined)	Mitogen-activated protein kinase kinase kinase 3 (Homo sapiens) (UniProt Q99759)	101% (inactive)
Cc1ccc(CC2CC(=O)N(c3cc(C)ccc3C)C2=O)cc1 (centres undefined)	Mitogen-activated protein kinase kinase kinase 3 (Homo sapiens) (UniProt Q99759)	101% (inactive)
CSc1ncccc1C(=O)NC1CCCCCC1	Mitogen-activated protein kinase kinase kinase 3 (Homo sapiens) (UniProt Q99759)	102% (inactive)

Give the measured binding response (% of control) of CCOC(=O)CSc1nnc(CNc2nc(-c3ccccc3)cs2)n1C .
92% (inactive)

Give the measured binding response (% of control) of COc1ccc(C(CNC(=O)COc2ccccc2OC)N2CCCCC2)cc1 (centres undefined) .
100% (inactive)

Give the measured binding response (% of control) of Cc1cc2cc(CNC(=O)c3ccc(S(=O)(=O)N4CCOCC4)cc3)ccc2[nH]1 .
94% (inactive)

Give the measured binding response (% of control) of COc1cc(C2C(C(=O)Nc3ccc(F)cc3)=C(C)Nc3nc(CCCO)nn32)cc(OC)c1OC (centres undefined) .
104% (inactive)

Give the measured binding response (% of control) of COC(=O)c1cccc(N(C(=O)CNC(=O)c2cccs2)C(C(=O)NCC2CCCO2)c2ccc(OC)c(OC)c2)c1 (centres undefined) .
100% (inactive)

Give the measured binding response (% of control) of C#CCOc1ccccc1/C=C1/C(=O)ON=C1C .
110% (inactive)

Give the measured binding response (% of control) of Cn1c2ccccc2c(=O)c2c(=O)n(Cc3ccco3)c(COc3ccccc3)nc21 .
130% (active)

Give the measured binding response (% of control) of CCOC(=O)C1CCN(C(=O)c2ccccc2N(C)S(=O)(=O)c2ccccc2)CC1 .
105% (inactive)

Give the measured binding response (% of control) of O=C(NCCN1CCN(C(=O)c2cccc([N+](=O)[O-])c2)CC1)C(=O)NCc1ccc(Cl)cc1 .
105% (inactive)

Give the measured binding response (% of control) of Cc1ccc(N2C(=O)CC(N3CCSCC3)C2=O)c(C)c1 (centres undefined) .
55% [inhibitor] (active)

The measurements presented in this section are drawn from PubChem BioAssay AID1529.
